residual activity listing for selected molecules.
TARGET SYSTEM: AURKB (human) (UniProt Q96GD4)
Sequence (Q96GD4 whole entry, looked up): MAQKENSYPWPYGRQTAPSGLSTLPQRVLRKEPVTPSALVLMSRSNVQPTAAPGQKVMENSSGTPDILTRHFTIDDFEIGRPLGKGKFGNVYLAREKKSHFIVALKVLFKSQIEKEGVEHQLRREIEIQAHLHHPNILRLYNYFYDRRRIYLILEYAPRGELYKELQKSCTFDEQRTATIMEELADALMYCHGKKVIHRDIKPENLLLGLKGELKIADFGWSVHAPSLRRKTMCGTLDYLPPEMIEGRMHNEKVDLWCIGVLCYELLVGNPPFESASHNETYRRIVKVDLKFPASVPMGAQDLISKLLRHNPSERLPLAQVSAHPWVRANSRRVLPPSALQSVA
ASSAY REMARKS: radiometric filter-binding kinase assay
CONDITION: compound 1.0 µM

1) NC(=O)c1ccc(-c2ccc(Oc3cncc4sc(-c5nn[nH]n5)cc34)cc2)cc1 = 84%
2) O=C(Nc1ccccc1-c1cn2c(CN3CCNCC3)csc2n1)c1cnc2ccccc2n1 = 93%
3) Cn1nc(Nc2ccc(F)cc2)c2c(N)ncnc21 = 98%
4) NC1(c2ccc(-c3nc4ccn5c(=O)[nH]nc5c4cc3-c3ccccc3)cc2)CCC1 = 88%
5) Nc1cccc2c1CN(C1CCC(=O)NC1=O)C2=O (stereo unspecified) = 83%

Q: For the molecule "c1ccc2c(-c3cnn4cc(-c5ccc(N6CCNCC6)cc5)cnc34)ccnc2c1" , give its reported residual activity.
A: 76%

* * *

TARGET SYSTEM: UniProtKB Q86V86
ASSAY REMARKS: radiometric filter-binding kinase assay
CONDITION: compound 10.0 µM
residual activity listing for selected molecules.
Field format: number, assumed %, no unit text.

1. Oc1ccc(/C=C/c2cc(O)cc(O)c2)cc1 = 44
2. NS(=O)(=O)OC[C@@H]1C[C@@H](n2ccc3c(N[C@H]4CCc5ccccc54)ncnc32)C[C@@H]1O = 78
3. Cn1nc(Nc2ccc(F)cc2)c2c(N)ncnc21 = 95

// next item, residual activity requested
Q: For the molecule "O=C(NOC[C@H](O)CO)c1ccc(F)c(F)c1Nc1ccc(I)cc1Cl" , give its reported residual activity.
A: 72

* * *

TARGET SYSTEM: SIK2 (human)
ASSAY REMARKS: radiometric filter-binding kinase assay
CONDITION: compound 0.1 µM
residual activity listing for selected molecules.
Field format: number, assumed %, no unit text.

Below, each entry is followed by its recorded residual activity result.
1. Cc1ccc(-c2ccc3c(ccc4sc5c(c43)NC[C@@H](C)NC5=O)n2)cn1 = 99
2. CN(C)C/C=C/C(=O)Nc1cccc(C(=O)Nc2ccc(Nc3nccc(-c4cccnc4)n3)cc2)c1 = 78
3. CNC(=O)C1[C@H]2O[C@@](C)([C@@H]1N)n1c3ccccc3c3c4c(c5c6ccccc6n2c5c31)C(=O)NC4 (stereo partly drawn) = 0
4. CC1=C(CO)C(=O)O[C@@H]([C@@H](C)[C@H]2CC[C@H]3[C@@H]4C[C@H]5O[C@]56[C@@H](O)C=CC(=O)[C@]6(C)C4CC[C@]23C)C1 (stereo partly drawn) = 82
5. COc1cc(O)c2c(c1)[C@H]1OC1C[C@H](O)[C@H](O)C(=O)/C=C\C[C@H](C)OC2=O (stereo partly drawn) = 107
6. CN1CCN(CCOc2cc(OC3CCOCC3)c3c(Nc4c(Cl)ccc5c4OCO5)ncnc3c2)CC1 = 51

Q: For the molecule "Cc1cc(NC(=O)c2cccc(NC(=O)/C=C/CN(C)C)c2)ccc1Nc1nccc(-c2cccnc2)n1" , give its reported residual activity.
A: 100

Q: For the molecule "CCn1c(-c2nonc2N)nc2cncc(CNC3CCNCC3)c21" , give its reported residual activity.
A: 97

* * *

TARGET SYSTEM: MAPKAPK3 (human) (UniProt Q16644)
Sequence (Q16644 whole entry, looked up): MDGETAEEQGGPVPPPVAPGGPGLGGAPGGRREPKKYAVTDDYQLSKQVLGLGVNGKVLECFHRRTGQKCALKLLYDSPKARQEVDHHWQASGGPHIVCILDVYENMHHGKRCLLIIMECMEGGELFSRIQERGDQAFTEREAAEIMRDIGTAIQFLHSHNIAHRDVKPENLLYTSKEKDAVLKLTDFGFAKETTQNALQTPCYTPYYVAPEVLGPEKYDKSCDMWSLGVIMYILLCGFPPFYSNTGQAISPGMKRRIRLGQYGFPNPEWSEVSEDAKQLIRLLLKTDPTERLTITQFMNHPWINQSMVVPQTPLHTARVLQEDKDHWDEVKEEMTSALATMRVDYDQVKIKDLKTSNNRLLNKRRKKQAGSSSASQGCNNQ
ASSAY REMARKS: radiometric filter-binding kinase assay
CONDITION: compound 0.1 µM
Everything with residual activity lower than 90% is not fulfilled; everything else, including exactly 90%, is fulfilled.

Answered examples (4):
1. C=CC(=O)N1CCC[C@@H](n2nc(-c3ccc(Oc4ccccc4)cc3)c3c(N)ncnc32)C1 = fulfilled
2. Cc1cccc(-c2nn(C(=S)Nc3ccccc3)cc2-c2ccnc3ccccc23)n1 = fulfilled
3. COc1ccc(-n2ncc3cnc(Nc4cc(OC)c(OC)c(OCCCN5CCN(C)CC5)c4)nc32)cc1 = fulfilled
4. COc1cc(O)c2c(c1)[C@H]1OC1C[C@H](O)[C@H](O)C(=O)/C=C\C[C@H](C)OC2=O (some centres undefined) = fulfilled

Q: In plain terms: is recorded residual activity at least 90% for "CNc1nc(-c2ccc3c(N)n[nH]c3c2)cc(N2C[C@@H](C(=O)NC3CCCCC3)CC[C@H]2C)n1" ?
A: fulfilled

Q: In plain terms: is recorded residual activity at least 90% for "O=C(Nc1nc2cc(C(F)(F)F)cc(NC3CC3)n2n1)c1cccnc1" ?
A: fulfilled

Q: In plain terms: is recorded residual activity at least 90% for "NC(=O)c1cc2c(-c3cccc(-c4ccccc4)c3)cnc(N)c2s1" ?
A: fulfilled

* * *

TARGET SYSTEM: UniProt:P11309
Sequence (P11309 whole entry, looked up): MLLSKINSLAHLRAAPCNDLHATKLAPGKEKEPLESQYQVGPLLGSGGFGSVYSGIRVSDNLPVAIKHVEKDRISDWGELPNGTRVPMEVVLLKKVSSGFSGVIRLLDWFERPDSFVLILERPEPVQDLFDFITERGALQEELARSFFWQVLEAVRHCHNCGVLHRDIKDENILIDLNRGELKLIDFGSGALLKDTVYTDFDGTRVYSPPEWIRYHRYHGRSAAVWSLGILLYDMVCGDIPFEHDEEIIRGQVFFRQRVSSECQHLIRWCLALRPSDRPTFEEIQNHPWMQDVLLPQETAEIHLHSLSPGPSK
ASSAY REMARKS: radiometric filter-binding kinase assay
CONDITION: compound 1.0 µM
ATTRIBUTE MEASURED: residual activity

1. C=C1C(=O)OC2C1CC/C(C)=C/CCC1(C)OC21 (stereo not given) = 97%
2. O=C(Nc1cccnc1)c1cc(-c2ccnc(F)c2)ccc1OCc1ccccc1 = 102%
3. NC1(c2ccc(-c3nc4ccn5c(=O)[nH]nc5c4cc3-c3ccccc3)cc2)CCC1 = 93%
4. Cc1ccc(-c2ccc3c(ccc4sc5c(c43)NC[C@@H](C)NC5=O)n2)cn1 = 58%
5. O=C(Nc1nc2cc(C(F)(F)F)cc(NC3CC3)n2n1)c1cccnc1 = 98%
6. FC(F)(F)c1ccc(-c2ccc(Oc3cncc4sc(-c5nn[nH]n5)cc34)cc2)cc1 = 70%

Q: For the molecule "Cc1cc(NC(=O)c2cccc(NC(=O)/C=C/CN(C)C)c2)ccc1Nc1nccc(-c2cccnc2)n1" , give its reported residual activity.
A: 89%

Q: For the molecule CC1=C(CO)C(=O)O[C@@H]([C@@H](C)[C@H]2CC[C@H]3[C@@H]4C[C@H]5O[C@]56[C@@H](O)C=CC(=O)[C@]6(C)C4CC[C@]23C)C1 (stereo not given in full) , give its reported residual activity.
A: 103%

* * *

TARGET SYSTEM: IRAK4 (human) (UniProt Q9NWZ3)
Sequence (Q9NWZ3 whole entry, looked up): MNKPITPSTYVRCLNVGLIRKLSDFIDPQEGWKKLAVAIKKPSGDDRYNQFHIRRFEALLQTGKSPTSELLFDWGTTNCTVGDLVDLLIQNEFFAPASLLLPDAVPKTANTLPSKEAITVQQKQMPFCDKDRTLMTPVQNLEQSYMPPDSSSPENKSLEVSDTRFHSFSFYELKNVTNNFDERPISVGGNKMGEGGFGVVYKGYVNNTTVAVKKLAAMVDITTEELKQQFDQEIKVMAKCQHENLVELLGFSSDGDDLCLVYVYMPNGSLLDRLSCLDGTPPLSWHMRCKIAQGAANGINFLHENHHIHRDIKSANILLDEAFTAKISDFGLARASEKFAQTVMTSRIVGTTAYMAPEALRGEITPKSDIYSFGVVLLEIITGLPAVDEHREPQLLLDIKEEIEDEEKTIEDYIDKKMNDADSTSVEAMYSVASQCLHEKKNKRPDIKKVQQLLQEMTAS
ASSAY REMARKS: radiometric filter-binding kinase assay
CONDITION: compound 10.0 µM
Please note: residual activity exactly at 80% is F. Only values below 80% get T.

Answered examples (5):
1) O=C(O)c1cc(N=Nc2ccc(S(=O)(=O)Nc3ccccn3)cc2)ccc1O = F
2) Nc1cccc2c1CN(C1CCC(=O)NC1=O)C2=O (stereo not drawn) = F
3) NC(=O)c1ccc(-c2ccc(Oc3cncc4sc(-c5nn[nH]n5)cc34)cc2)cc1 = T
4) Oc1ccc(/C=C/c2cc(O)cc(O)c2)cc1 = T
5) O=S(=O)(c1ccc(F)c2nonc12)N1CCN(c2ncc(C(F)(F)F)cc2Cl)CC1 = T

Q: Consider "FC(F)(F)c1ccc(-c2ccc(Oc3cncc4sc(-c5nn[nH]n5)cc34)cc2)cc1" . Does its residual activity lie strictly below 80%?
A: F

Q: Consider "c1ccc2c(-c3cnn4cc(-c5ccc(N6CCNCC6)cc5)cnc34)ccnc2c1" . Does its residual activity lie strictly below 80%?
A: T

Q: Consider "Cc1ccc2c(c1)C(=O)[C@@]1(O)CCN(c3ccccc3)C1=N2" . Does its residual activity lie strictly below 80%?
A: F

Q: Consider "CC(C)(C#N)c1ccc(N2C(=O)OCc3cnc4ccc(-c5cnc6ccccc6c5)cc4c32)cc1" . Does its residual activity lie strictly below 80%?
A: F

* * *

TARGET SYSTEM: MKNK2 (human) (UniProt Q9HBH9)
Sequence (Q9HBH9 whole entry, looked up): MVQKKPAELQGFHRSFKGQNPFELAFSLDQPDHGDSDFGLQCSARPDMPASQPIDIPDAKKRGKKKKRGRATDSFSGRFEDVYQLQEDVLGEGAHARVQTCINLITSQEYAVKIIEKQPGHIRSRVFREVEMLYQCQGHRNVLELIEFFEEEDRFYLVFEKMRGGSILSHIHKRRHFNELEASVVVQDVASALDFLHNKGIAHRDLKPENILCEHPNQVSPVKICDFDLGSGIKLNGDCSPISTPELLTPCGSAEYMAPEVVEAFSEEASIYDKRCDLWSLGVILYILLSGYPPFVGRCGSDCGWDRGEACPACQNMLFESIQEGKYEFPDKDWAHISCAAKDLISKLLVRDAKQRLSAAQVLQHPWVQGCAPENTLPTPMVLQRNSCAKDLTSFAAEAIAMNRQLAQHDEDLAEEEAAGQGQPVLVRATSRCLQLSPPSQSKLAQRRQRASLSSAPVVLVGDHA
ASSAY REMARKS: radiometric filter-binding kinase assay
CONDITION: compound 10.0 µM
ATTRIBUTE MEASURED: residual activity (%)
Field format: number, assumed %, no unit text.

1. COc1cc(C(=O)N2CCOCC2)c(F)cc1Nc1ncc(C(F)(F)F)c(NC2CC2)n1 = 22
2. O=c1c(O)c(-c2ccc(O)c(O)c2)oc2cc(O)c(O)c(O)c12 = 26
3. O=C(Nc1ccccc1-c1cn2c(CN3CCNCC3)csc2n1)c1cnc2ccccc2n1 = 96
4. NCC(=O)Nc1ccc(-n2nc(C(F)(F)F)cc2-c2ccc3c(ccc4ccccc43)c2)cc1 = 109
5. Cc1cc(SCc2sc(-c3ccc(C(F)(F)F)cc3)nc2C)ccc1OCC(=O)O = 83
6. N#Cc1c(C2CCNCC2)cc(-c2c(O)cccc2OCC2CC2)nc1N = 89

Q: Report residual activity under test system MKNK2 (human) (UniProt Q9HBH9) for "CCc1cncnc1N1CCN(Cc2nc3cc(C(F)(F)F)ccc3[nH]2)CC1" .
A: 79

Q: Report residual activity under test system MKNK2 (human) (UniProt Q9HBH9) for "O=C1NC(=S)N[C@@H]1Cc1c[nH]c2ccccc12" .
A: 97

Q: Report residual activity under test system MKNK2 (human) (UniProt Q9HBH9) for "CCn1c(-c2nonc2N)nc2cncc(CNC3CCNCC3)c21" .
A: 77

Q: Report residual activity under test system MKNK2 (human) (UniProt Q9HBH9) for "CCOC(=O)c1ccc(N2NC(=O)/C(=C/c3ccc([N+](=O)[O-])o3)C2=O)cc1" .
A: 89
